Taken from patent US20210221891A1.

As shown below, each of these binders has a reported EC50 of PD-L1- based blockade assay for sdAbs value.
Target: human PD-L1 expressed on CHO-K1 cells (human, UniProt Q9NZQ7 19-290)
Sequence (Q9NZQ7 19-290): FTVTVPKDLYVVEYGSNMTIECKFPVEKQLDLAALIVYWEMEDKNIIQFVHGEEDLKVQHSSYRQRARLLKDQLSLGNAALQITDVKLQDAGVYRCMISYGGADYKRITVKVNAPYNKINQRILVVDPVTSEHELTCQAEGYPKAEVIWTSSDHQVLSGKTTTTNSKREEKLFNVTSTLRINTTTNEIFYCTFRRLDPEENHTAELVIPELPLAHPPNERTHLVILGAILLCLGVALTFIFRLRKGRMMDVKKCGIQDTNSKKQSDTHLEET
Assay: cell-based or functional assay
READOUT TYPE: EC50 of PD-L1- based blockade assay for sdAbs (nM)

| BINDER | VALUE |
| --- | --- |
| AS06686 sdAb (VHH) VHH: AVQLVESGGGLVQAGDSLRLACAASGRTFLTYALGWFRQAPGKEREFVAGVSWSGSSTKYADSVKGRFTISRDNAKNTVYMQMNSLKPEDTAVYYCAAQISAIVPISAHEYQYWGQGTQVTVSS | 352 |
| AS06617 sdAb (VHH) VHH: DVQLVESGGGLVQAGDSLRLSCAASGRTFISYAVGWFRQAPGSEREFVAGIRWNGIHTDYADSVKGRFTISRDNAKNTVTLEMTSLKPEDTAVYYCAAHRTIATIPEKYEYEYWGQGTQVTVSS | 63.8 |
| AS12003 sdAb (VHH) VHH: EVQLVESGGGLVQAGDSLRLSCAASGRTFLSYAVGWFRQAPGTEREFVAGIRWSGGSTDYADSVKGRFTISRDNAKNTVYLQMNSLKPEDTAVYYCAAHRTIATVPNKYEYDTWGQGTQVTVSS | 96.2 |
| AS06682 sdAb (VHH) VHH: AVQLVESGGGLVQAGDSLRLSCTASGRTFLSYAVGWFRQAPGTEREFVAGIRWSGEHTDYAASVKGRFTISRDNAKNTVYLQMNSLKPEDTAVYYCAAHTTIATIPKKYEYEYWGQGTQVTVSS | 42 |
| AS06750 sdAb (VHH) VHH: AVQLVESGGGLVQAGDSLRLSCTASGRTFLTYAVGWFRQAPGTEREFVAGIRWSGGYTDYADSVKGRFTISRDNAKNTVYLQMNSLKPEDTAVYYCAAHRTIATIPEKYEYEYWGQGTQVTVSS | 33.6 |
| AS06618 sdAb (VHH) VHH: EVQLVESGGRLVRAGDSLRLSCAASGRTFLSYAVGWFRQAPGTEREFVAGIRWSGGYTDYAEAVKGRFTISRDNAKNTVYLQMNSLKPEDTAVYYCAAHRTIATIPEKYEYEYWGQGTQVTVSS | 44.5 |
